Listed here are binders together with their documented EC50.
Target: T1, extracellular domain of human CD73 protein (CD73-ECD), C-terminus polyhistidine-tagged (UniProt P21589 27-547)
T1 chain: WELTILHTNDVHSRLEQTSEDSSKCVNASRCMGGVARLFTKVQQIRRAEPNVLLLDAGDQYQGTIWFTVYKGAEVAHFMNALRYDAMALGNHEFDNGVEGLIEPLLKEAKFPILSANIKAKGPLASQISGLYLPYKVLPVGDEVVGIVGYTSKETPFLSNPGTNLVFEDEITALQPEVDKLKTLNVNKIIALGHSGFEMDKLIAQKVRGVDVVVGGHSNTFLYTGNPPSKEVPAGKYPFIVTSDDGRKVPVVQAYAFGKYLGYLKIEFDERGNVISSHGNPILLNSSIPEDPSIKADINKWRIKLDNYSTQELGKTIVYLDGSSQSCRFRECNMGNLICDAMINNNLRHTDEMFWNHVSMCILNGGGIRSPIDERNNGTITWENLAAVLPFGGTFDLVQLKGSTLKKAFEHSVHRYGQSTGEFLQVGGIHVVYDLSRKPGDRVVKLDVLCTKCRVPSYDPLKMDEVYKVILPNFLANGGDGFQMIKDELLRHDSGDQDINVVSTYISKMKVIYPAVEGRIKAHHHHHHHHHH
Assay: ELISA
Number in nM, nothing else.

Example entries and their recorded answers appear below.
>  <binder>
Hu002c-8 (antibody, V domains shown) VH: QVQLVQSGAEVKKPGASVKVSCKASGYTLTSYWMHWVRQAPGQGLEWIGEINPSQGRSNYNEKFKSRVTLTVDRSTSTVYMELSSLRSEDTAVYYCARRGVSGNYFDYWGQGTLVTVSS VL: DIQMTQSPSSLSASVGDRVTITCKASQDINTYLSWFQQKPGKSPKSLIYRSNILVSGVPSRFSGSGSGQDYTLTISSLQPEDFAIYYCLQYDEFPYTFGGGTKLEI

>  <observed-measurement>
0.107

$$$$
>  <binder>
Hu001c-28 (antibody, V domains shown) VH: QVQLVQSGAEVKKPGASVKVSCKTSGYTFTNYYIYWVKQRPGQGLEWIGWIYPGNLNIKYNEKFKGRVTITADKSASTAYMELSSLRSEDTAVYYCARDDNYAWFAYWGQGTLVTVSS VL: DIQMTQSPSSLSASVGDRVTITCKASQDVSTAVAWYQQKPGKSPKLLIYWTNTRHTGVPSRFSGSGSGTDHTLTISSLQPEDFATYYCQQHYSTPFTFGQGTKLEIK

>  <observed-measurement>
0.037

$$$$

Ask: EC50 lookup needed for Hu002c-3 (antibody, V domains shown) VH: QVQLVQSGAEVKKPGASVKVSCKASGYTLTSYWMHWVRQAPGQGLEWMGEINPSQGRSNYNEKFKSRVTMTRDTSTSTVYMELSSLRSEDTAVYYCARRGVSGNYFDYWGQGTLVTVSS VL: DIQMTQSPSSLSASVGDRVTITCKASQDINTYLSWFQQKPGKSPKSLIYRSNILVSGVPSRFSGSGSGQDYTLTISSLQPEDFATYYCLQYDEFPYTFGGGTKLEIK , thanks.
Reply: 0.089

Ask: Quick one: EC50 for Hu001c-23 (antibody, V domains shown) VH: QVQLVQSGAEVKKPGASVKVSCKASGYTFTNYYIYWVKQRPGQGLEWIGWIYPGNLNIKYNEKFKGRVTITADKSASTAYMELSSLRSEDTAVYYCARDDNYAWFAYWGQGTLVTVSS VL: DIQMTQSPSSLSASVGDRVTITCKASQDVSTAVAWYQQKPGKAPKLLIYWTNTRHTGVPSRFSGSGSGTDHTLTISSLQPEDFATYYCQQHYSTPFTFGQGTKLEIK ?
Reply: 0.033

Ask: Need EC50, item Hu001c-32 (antibody, V domains shown) VH: QVQLVQSGAEVKKPGASVKVSCKASGYTFTNYYIYWVKQRPGQRLEWIGWIYPGNLNIKYNEKFKGRSTLTADKSASTAYMELSSLRSEDTAVYYCARDDNYAWFAYWGQGTLVTVSS VL: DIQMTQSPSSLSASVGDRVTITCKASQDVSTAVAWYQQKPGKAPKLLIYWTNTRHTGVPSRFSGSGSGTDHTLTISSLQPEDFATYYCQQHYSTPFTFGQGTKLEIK
Reply: 0.107

Ask: # input binder: Hu002c-4 (antibody, V domains shown) VH: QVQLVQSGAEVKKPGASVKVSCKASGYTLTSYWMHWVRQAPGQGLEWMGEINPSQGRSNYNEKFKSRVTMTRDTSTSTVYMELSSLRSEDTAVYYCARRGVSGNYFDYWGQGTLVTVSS VL: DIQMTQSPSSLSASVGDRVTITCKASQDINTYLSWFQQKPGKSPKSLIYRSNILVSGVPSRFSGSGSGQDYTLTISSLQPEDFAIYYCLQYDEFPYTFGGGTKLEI ; wanted: its EC50
Reply: 0.106

Ask: What value of EC50 has been recorded for this entry: Hu002c-12 (antibody, V domains shown) VH: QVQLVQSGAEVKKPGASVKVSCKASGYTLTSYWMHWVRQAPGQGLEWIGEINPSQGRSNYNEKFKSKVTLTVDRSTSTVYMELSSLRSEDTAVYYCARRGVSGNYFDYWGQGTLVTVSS VL: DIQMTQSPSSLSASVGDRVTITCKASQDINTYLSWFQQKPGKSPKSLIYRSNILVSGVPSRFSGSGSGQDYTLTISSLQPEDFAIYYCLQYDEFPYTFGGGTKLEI
Reply: 0.083
